Form field: pKd (one value per entry).
Biological target: T1, rat IL-25 expressed with a C-terminal myc-myc-hexahistidine tag (rat)
T1 construct: also called Rat IL-25-MMH
T1 chain: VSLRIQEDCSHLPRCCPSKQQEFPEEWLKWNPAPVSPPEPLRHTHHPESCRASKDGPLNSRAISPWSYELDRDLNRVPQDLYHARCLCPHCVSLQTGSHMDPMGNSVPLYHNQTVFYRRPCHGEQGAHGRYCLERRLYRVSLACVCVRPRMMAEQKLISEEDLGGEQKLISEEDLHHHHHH
Experiment: SPR Biacore, antibody captured, 37C
Interpret pKd as the negative base-10 log of the concentration measured in mol/L.

For the binder H4H10876P (antibody, human IgG4, V domains shown, H4H prefix = human IgG4 Fc) VH: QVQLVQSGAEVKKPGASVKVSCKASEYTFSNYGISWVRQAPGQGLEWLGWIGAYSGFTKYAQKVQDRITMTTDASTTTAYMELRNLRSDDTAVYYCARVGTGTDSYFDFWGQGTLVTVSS VL: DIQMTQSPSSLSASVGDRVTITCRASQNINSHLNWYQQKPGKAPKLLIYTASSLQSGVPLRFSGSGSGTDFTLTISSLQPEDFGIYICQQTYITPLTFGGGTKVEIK , give its reported pKd.
9.62

For the binder H4H10897P (antibody, human IgG4, V domains shown, H4H prefix = human IgG4 Fc) VH: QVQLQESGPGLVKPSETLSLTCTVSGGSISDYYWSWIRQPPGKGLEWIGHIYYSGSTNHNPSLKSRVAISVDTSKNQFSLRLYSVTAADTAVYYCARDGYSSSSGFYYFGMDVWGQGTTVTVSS VL: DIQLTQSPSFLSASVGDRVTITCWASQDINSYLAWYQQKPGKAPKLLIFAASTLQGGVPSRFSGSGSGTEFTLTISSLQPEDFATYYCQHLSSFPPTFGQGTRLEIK , give its reported pKd.
7.61

For the binder H4H10907P (antibody, human IgG4, V domains shown, H4H prefix = human IgG4 Fc) VH: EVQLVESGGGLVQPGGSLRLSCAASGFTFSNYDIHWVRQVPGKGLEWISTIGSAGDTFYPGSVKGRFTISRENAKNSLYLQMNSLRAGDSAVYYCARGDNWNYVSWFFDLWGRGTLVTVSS VL: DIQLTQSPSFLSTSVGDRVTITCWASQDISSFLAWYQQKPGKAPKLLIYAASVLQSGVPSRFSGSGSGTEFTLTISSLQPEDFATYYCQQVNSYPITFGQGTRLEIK , give its reported pKd.
7.07

src = patent US20160083466A1
